- test-target: CaAbp1-D1
- assay-notes: SPOT peptide array binding signal intensity (averaged, normalized) (arbitrary units (background-subtracted, floor 0; scale differs between SH3 domains)); higher = stronger binding of the SH3 domain to the peptide
quantity-name: SPOT peptide array binding signal intensity
Lab note: jot down the number only; don't add units.

- binder: "QRIRKIPGIPLMSVG"
  measured-value: 253
- binder: "KRNRLKILLPFLEQS"
  measured-value: 342

Tell me the measured SPOT peptide array binding signal intensity of MARRRLPDRPPNGIG , please.
1170
